Target: BTK enzyme (recombinant full-length BTK, hBTK) (Homo sapiens (Human), UniProt Q06187)
Sequence (Q06187 whole entry): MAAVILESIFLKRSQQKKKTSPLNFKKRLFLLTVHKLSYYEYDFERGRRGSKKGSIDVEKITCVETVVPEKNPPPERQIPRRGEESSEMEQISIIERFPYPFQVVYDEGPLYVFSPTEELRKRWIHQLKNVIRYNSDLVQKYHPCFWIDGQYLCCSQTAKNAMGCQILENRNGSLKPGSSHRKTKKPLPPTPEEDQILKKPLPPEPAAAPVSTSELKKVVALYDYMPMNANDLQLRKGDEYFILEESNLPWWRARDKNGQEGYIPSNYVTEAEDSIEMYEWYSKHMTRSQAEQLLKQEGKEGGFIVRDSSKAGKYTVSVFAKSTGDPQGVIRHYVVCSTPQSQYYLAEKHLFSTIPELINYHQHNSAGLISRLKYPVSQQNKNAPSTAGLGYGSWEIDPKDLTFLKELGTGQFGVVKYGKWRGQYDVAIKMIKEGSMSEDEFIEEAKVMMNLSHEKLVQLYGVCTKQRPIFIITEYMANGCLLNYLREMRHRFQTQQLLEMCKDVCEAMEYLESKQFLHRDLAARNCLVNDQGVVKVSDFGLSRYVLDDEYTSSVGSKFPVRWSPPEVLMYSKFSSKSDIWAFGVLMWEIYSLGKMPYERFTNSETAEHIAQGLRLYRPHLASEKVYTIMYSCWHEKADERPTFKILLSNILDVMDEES
Assay: Btk enzyme activity assay, LANCE TR-FRET
Conditions: 50 pM hBTK, 2 μM biotin-A5-peptide, 25 μM ATP, 60 minute compound & enzyme incubation, compound range 1 μM to 0.017 nM, read-out: BTK binding IC50
pIC50: −log10 of the molar value.
recorded_endpoint: pIC50

P: C[C@@](O)(c1ccc(-c2nc(C34CCC(C(=O)O)(CC3)C3CC34)n3ccnc(N)c23)cc1)c1cccc(C(F)(F)F)c1 (stereo partly shown) [Example 22]
Q: CC1(C)[C@@H](c2nc(-c3ccc([C@@](C)(O)c4cccc(C(F)(F)F)c4)cc3)c3c(N)nccn23)CC[C@@]1(C)C(=O)O [Example 13]
R: CC(C)[C@@]1(C(=O)O)CC[C@H](c2nc(-c3ccc([C@@](C)(O)c4cccc(C(F)F)c4)cc3)c3c(N)ncc(Cl)n23)C1 [Example 30]
Ask: Put the items in sequence by pIC50, from largest down. Order the labels as requested and give them as your answer.
Result: P, R, Q
(P: 8.21, R: 7.49, Q: 7.07)

A: CC(C)[C@H]1CC[C@@H](c2nc(-c3ccc([C@@](C)(O)c4cccc(C(F)(F)F)c4)cc3)c3c(N)nccn23)C[C@H]1C(=O)O [Example 21]
B: C[C@@](O)(c1ccc(-c2nc(C34CCCC(C(=O)O)(CC3)CC4)n3ccnc(N)c23)cc1)c1cccc(C(F)(F)F)c1 [Example 9]
Ask: Quick one: lower pIC50, A or B ? Field: selected label. Fill in the label of the entry you choose.
Result: A
(A: 7.25, B: 8.15)

P: C[C@@](O)(c1ccc(-c2nc(C34CCC(C(=O)O)(CC3(F)F)C(F)(F)C4)n3ccnc(N)c23)cc1)c1cccc(C(F)(F)F)c1 (stereo partly shown) [Example 12]
Q: C[C@@](O)(c1ccc(-c2nc(C34CCC(C(=O)O)(CC3)C4)n3ccnc(N)c23)cc1)c1cccc(C(F)(F)F)c1 [Example 8]
Ask: Quick one: lower pIC50, P or Q ? Field: selected label. Fill in the label of the entry you choose.
Result: P
(P: 7.76, Q: 8.96)

P: C[C@](O)(c1ccc(-c2nc(C34CCC(C(=O)O)(CC3)CC4)n3ccnc(N)c23)cc1)c1cccc(C(F)(F)F)c1 [Example 2]
Q: CC(C)[C@]1(C(=O)O)CCC[C@@H](c2nc(-c3ccc([C@](C)(O)c4cccc(C(F)(F)F)c4)cc3)c3c(N)nccn23)C1 [Example 14]
R: CCOc1cc(C(C)(O)c2cccc(C)c2)ccc1-c1nc(C23CCC(C(=O)O)(CC2)CC3)n2ccnc(N)c12 (stereo not shown) [Example 20]
Ask: Task field, ranking: reported pIC50, descending order. Order the labels as requested and give them as your answer.
Result: P, R, Q
(P: 8.24, R: 6.87, Q: 6.00)

a: C[C@]1(C(=O)O)CC[C@](C)(c2nc(-c3ccc([C@@](C)(O)c4cccc(C(F)(F)F)c4)cc3)c3c(N)nccn23)C1 [Example 16]
b: C[C@@](O)(c1ccc(-c2nc([C@@H]3C[C@@H]4[C@H](C3)[C@@H]4C(=O)O)n3ccnc(N)c23)cc1)c1cccc(C(F)(F)F)c1 [Example 35]
Ask: Return label of the item with the larger pIC50. Candidates: a , b . Field: selected label. Fill in the label of the entry you choose.
Result: a

###

Target: BTK enzyme (recombinant full-length BTK, hBTK) (Homo sapiens (Human), UniProt Q06187)
Experiment: Btk enzyme activity assay, LANCE TR-FRET
Settings: 50 pM hBTK, 2 μM biotin-A5-peptide, 25 μM ATP, 60 minute compound & enzyme incubation, compound range 1 μM to 0.017 nM, read-out: BTK binding IC50
pIC50: −log10 of the molar value.
recorded_endpoint: pIC50

compound=CC(C)[C@]1(C(=O)O)CC[C@@H](c2nc(-c3ccc([C@@](C)(O)c4cccc(C(F)F)c4)cc3)c3c(N)ncc(Cl)n23)C1 observed_measurement=8.55
compound="CC1(C(=O)O)CCC(C)(c2nc(-c3ccc([C@@](C)(O)c4cccc(C(F)(F)F)c4)cc3)c3c(N)nccn23)CC1 (stereo partly shown)" observed_measurement=7.40
compound=C[C@@](O)(c1ccc(-c2nc(C3(C(=O)O)CC3)n3ccnc(N)c23)cc1)c1cccc(C(F)(F)F)c1 observed_measurement=6.21
compound=C[C@@](O)(c1ccc(-c2nc([C@@H]3C[C@H]4CC[C@@H](C3)[C@H]4C(=O)O)n3ccnc(N)c23)cc1)c1cccc(C(F)(F)F)c1 observed_measurement=7.47
compound="CC1(C(=O)O)CCC(C)(c2nc(-c3ccc([C@@](C)(O)c4cccc(C(F)F)c4)cc3)c3c(N)nccn23)CC1 (stereo partly shown)" observed_measurement=7.94

1: C[C@@](O)(c1ccc(-c2nc(C3(C(=O)O)CCOCC3)n3ccnc(N)c23)cc1)c1cccc(C(F)(F)F)c1
2: CC(C)[C@@]1(C(=O)O)CCC[C@H](c2nc(-c3ccc([C@](C)(O)c4cccc(C(F)(F)F)c4)cc3)c3c(N)nccn23)C1
3: C[C@@](O)(c1ccc(-c2nc([C@@H]3C[C@@H]4[C@H](C3)[C@H]4C(=O)O)n3ccnc(N)c23)cc1)c1cccc(C(F)(F)F)c1
Ask: Task field, ranking: reported pIC50, descending order. Order the labels as requested and give them as your answer.
Result: 3, 2, 1

I: C[C@]1(C(=O)O)CC[C@@](C)(c2nc(-c3ccc([C@@](C)(O)c4cccc(C(F)(F)F)c4)cc3)c3c(N)nccn23)C1
II: C[C@@](O)(c1ccc(-c2nc(C34CCC(C(=O)O)(CC3)CC4)n3ccnc(N)c23)cc1)c1cccc(C(F)(F)F)c1
Ask: Quick one: lower pIC50, I or II ? Field: selected label. Fill in the label of the entry you choose.
Result: II

A: CC(C)[C@]1(C(=O)O)CC[C@H](c2nc(-c3ccc([C@@](C)(O)c4cccc(C(F)F)c4)cc3)c3c(N)ncc(Cl)n23)C1
B: C[C@@]1(C(=O)O)CC[C@](C)(c2nc(-c3ccc([C@@](C)(O)c4cccc(C(F)(F)F)c4)cc3)c3c(N)nccn23)C1
C: CC1(C)[C@H](c2nc(-c3ccc([C@@](C)(O)c4cccc(C(F)F)c4)cc3)c3c(N)nccn23)CC[C@]1(C)C(=O)O
Ask: Task field, ranking: reported pIC50, descending order. Order the labels as requested and give them as your answer.
Result: C, B, A
(C: 9.11, B: 7.26, A: 6.88)

###

Molecular target: BTK enzyme (recombinant full-length BTK, hBTK) (Homo sapiens (Human))
Test: Btk enzyme activity assay, LANCE TR-FRET
Conditions: 50 pM hBTK, 2 μM biotin-A5-peptide, 25 μM ATP, 60 minute compound & enzyme incubation, compound range 1 μM to 0.017 nM, read-out: BTK binding IC50
pIC50: −log10 of the molar value.
recorded_endpoint: pIC50

// known answers, use as guide
compound=CC(C)[C@]1(C(=O)O)CC[C@H](c2nc(-c3ccc([C@](C)(O)c4cccc(C(F)(F)F)c4)cc3)c3c(N)nccn23)C1 observed_measurement=6.00
compound="C[C@@](O)(c1ccc(-c2nc(C34CCC(C(=O)O)(CC3=O)C(=O)C4)n3ccnc(N)c23)cc1)c1cccc(C(F)(F)F)c1 (stereo partly shown)" observed_measurement=7.28
compound=CC(C)[C@@H]1CC[C@H](c2nc(-c3ccc([C@@](C)(O)c4cccc(C(F)(F)F)c4)cc3)c3c(N)nccn23)C[C@@H]1C(=O)O observed_measurement=7.54
compound=CCOc1cc([C@@](C)(O)c2cccc(C(F)(F)F)c2)ccc1-c1nc([C@@H]2CC[C@](C)(C(=O)O)C2(C)C)n2ccnc(N)c12 observed_measurement=8.92

A: CC1(C)[C@H](c2nc(-c3ccc([C@@](C)(O)c4cccc(C(F)F)c4)cc3)c3c(N)ncc(F)n23)CC[C@]1(C)C(=O)O
B: CC(C)[C@@]1(C(=O)O)CC[C@@H](c2nc(-c3ccc([C@@](C)(O)c4cccc(C(F)F)c4)cc3)c3c(N)ncc(Cl)n23)C1
Ask: Quick one: lower pIC50, A or B ? Field: selected label. Fill in the label of the entry you choose.
Result: B

A: CCOc1cc(C(C)(O)c2cccc(C)c2)ccc1-c1nc(C23CCC(C(=O)O)(CC2)CC3)n2ccnc(N)c12 (stereo not shown) [Example 19]
B: C[C@@](O)(c1ccc(-c2nc([C@H]3C[C@H]4CC[C@@H](C3)[C@H]4C(=O)O)n3ccnc(N)c23)cc1)c1cccc(C(F)(F)F)c1
C: CC(C)[C@]1(C(=O)O)CC[C@H](c2nc(-c3ccc([C@@](C)(O)c4cccc(C(F)(F)F)c4)cc3)c3c(N)nccn23)C1
Ask: Task field, ranking: reported pIC50, descending order. Order the labels as requested and give them as your answer.
Result: A, C, B
(A: 8.39, C: 7.72, B: 7.40)
